Values were extracted from ChEMBL document CHEMBL5154868.

Target: Galectin-8 (Homo sapiens)
Assay: Binding affinity to human galectin-8N using 3,3'-dideoxy-3-[4-(fluorescein-5-yl-carbonylaminomethyl)-1H-1,2,3-triazol-1-y1]-3'.(3,5-dimethoxy-benzamido)-1,1'-sulfanediyl-di-beta-D-galactopyranoside as fluorescent probe by fluorescence polarization analysis
measured.metric: pKd
Scale: pKd equals -log10([C]), with [C] in mol/L.

For CO[C@@H]1O[C@H](CO)[C@H](O)[C@H](OC(=O)c2ccc(C)cc2)[C@@H]1OC(=O)c1ccc(Cl)cc1[N+](=O)[O-] , what is its reported pKd? 2.40

###

Target: Galectin-4 (Homo sapiens)
Sequence (P56470 whole entry): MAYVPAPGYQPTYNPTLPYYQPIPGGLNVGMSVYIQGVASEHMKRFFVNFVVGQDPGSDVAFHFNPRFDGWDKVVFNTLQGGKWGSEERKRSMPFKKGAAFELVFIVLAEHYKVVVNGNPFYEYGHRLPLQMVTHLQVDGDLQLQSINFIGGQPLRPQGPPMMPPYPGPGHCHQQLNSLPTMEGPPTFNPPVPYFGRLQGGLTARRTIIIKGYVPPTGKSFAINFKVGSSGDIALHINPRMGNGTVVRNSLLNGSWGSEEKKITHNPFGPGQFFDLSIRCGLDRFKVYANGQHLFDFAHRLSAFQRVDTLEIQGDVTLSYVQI
pKd: −log10 of the molar value.
Cut-off 4 on pKd, inclusive. At or above means true (1); below means false (0).

Check the entry CO[C@@H]1O[C@H](CO)[C@H](O)[C@H](OC(=O)c2ccc(C)cc2)[C@@H]1OC(=O)c1ccc(Cl)cc1[N+](=O)[O-] : does pKd equal or exceed 4? true (1)

Could you please find out whether CO[C@@H]1O[C@H](CO)[C@H](O)[C@H](OC(=O)c2ccc(C)cc2)[C@@H]1OC(=O)c1ccc(F)cc1[N+](=O)[O-] has pKd that meets 4 or exceeds it? true (1)

Decide: is the reported value of pKd for CO[C@@H]1O[C@H](CO)[C@H](O)[C@H](OC(=O)c2ccc(C)cc2)[C@@H]1OC(=O)c1ccc(C(F)(F)F)cc1[N+](=O)[O-] equal to or greater than 4? true (1)

Given the entry CO[C@@H]1O[C@H](CO)[C@H](O)[C@H](OC(=O)c2ccc(C)cc2)[C@@H]1OC(=O)c1cccc([N+](=O)[O-])c1 , answer whether its pKd meets or surpasses 4. false (0)

Form field: pKd at least 4? Entry: CO[C@@H]1O[C@H](CO)[C@H](O)[C@H](OC(=O)c2ccc(C)cc2)[C@@H]1OC(C)=O false (0)

Identify whether the reported pKd of the following compound is 4 or greater: CO[C@@H]1O[C@H](CO)[C@H](O)[C@H](OC(=O)c2ccc(C)cc2)[C@@H]1OC(=O)c1ccccc1[N+](=O)[O-] true (1)

###

Assignment: determine reported pKd for the given molecules.
Target: Galectin-8 (Homo sapiens, UniProt O00214)
Sequence (O00214 whole entry): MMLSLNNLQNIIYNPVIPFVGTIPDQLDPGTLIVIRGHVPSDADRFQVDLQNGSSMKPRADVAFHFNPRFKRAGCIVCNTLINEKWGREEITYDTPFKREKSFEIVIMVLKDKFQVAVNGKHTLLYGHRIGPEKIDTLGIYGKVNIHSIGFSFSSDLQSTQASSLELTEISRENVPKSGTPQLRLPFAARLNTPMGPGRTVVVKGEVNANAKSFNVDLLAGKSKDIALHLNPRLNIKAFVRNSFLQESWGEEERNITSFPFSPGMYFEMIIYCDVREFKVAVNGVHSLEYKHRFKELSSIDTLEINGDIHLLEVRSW
Test: Binding affinity to human galectin-8C expressed in Escherichia coli BL21(DE3) using 3,3'-dideoxy-3-[4-(fluorescein-5-yl-carbonylaminomethyl)-1H-1,2,3-triazol-1-y1]-3'-(3,5-dimethoxy-benzamido)-1,1'-sulfanediyl-di-beta-D-galactopyranoside as fluorescent probe by fluorescence polarization analysis
Quick note: pKd means taking -log10 of the concentration in moles per liter.

Please give the measured pKd for this molecule: CO[C@@H]1O[C@H](CO)[C@H](O)[C@H](OC(=O)c2ccc(C)cc2)[C@@H]1OC(=O)c1ccc(F)cc1[N+](=O)[O-] 3.05

Recorded pKd of CO[C@@H]1O[C@H](CO)[C@H](O)[C@H](OC(=O)c2ccc(C)cc2)[C@@H]1OC(=O)c1cccc([N+](=O)[O-])c1 , please. 2.40

Suppose we examine the molecule CO[C@@H]1O[C@H](CO)[C@H](O)[C@H](OC(=O)c2ccc(C)cc2)[C@@H]1OC(=O)c1ccc(C(F)(F)F)cc1[N+](=O)[O-] ; what pKd value has been reported? 2.72

Look at this molecule and give its reported pKd. CO[C@@H]1O[C@H](CO)[C@H](O)[C@H](OC(=O)c2ccc(C)cc2)[C@@H]1OC(=O)c1ccc(Cl)cc1[N+](=O)[O-] 3.35
